# System: human red blood cells
# EXPERIMENTAL_DETAILS: Hemolytic activity
# Type: cell-based
# MEASUREMENT_SETUP: red cells of human, 18 h, 25
Square brackets hold non-standard residues; d marks the D form. Peptide text beside a SMILES is read from it. dBta = N[C@H](Cc1csc2ccccc12)C(=O)O

{"MOLECULE": "CC[C@@H](C)[C@@H](NC(=O)[C@@H](Cc1c[nH]c2ccccc12)NC(=O)[C@H](NC(=O)[C@@H](CC(C)C)NC(=O)[C@H](N)Cc1c[nH]c2ccccc12)C(C)C)C(=O)N[C@H](Cc1c[nH]c2ccccc12)C(=O)N[C@H](CCCNC(=N)N)C(=O)N[C@H](CCCNC(=N)N)C(=O)N[C@H](CCC(N)=O)C(=O)N[C@H](CCCNC(=N)N)C(N)=O [WCopW31] (H-[dW][dL][dV][dW][dI][dW][dR][dR][dQ][dR]-NH2)", "ASSAYED_SYSTEM": "human red blood cells", "Hemolysis percent, 25 μM [%]": 0.35}
{"MOLECULE": "CC(C)[C@@H](NC(=O)[C@H](N)Cc1c[nH]c2ccccc12)C(=O)N[C@@H](C(=O)N[C@H](Cc1c[nH]c2ccccc12)C(=O)N[C@@H](C(=O)N[C@H](Cc1c[nH]c2ccccc12)C(=O)N[C@H](CCCNC(=N)N)C(=O)N[C@H](CCCNC(=N)N)C(=O)N[C@H](CCCNC(=N)N)C(N)=O)C(C)C)C(C)C [WCopW40] (H-[dW][dV][dV][dW][dV][dW][dR][dR][dR]-NH2)", "ASSAYED_SYSTEM": "human red blood cells", "Hemolysis percent, 25 μM [%]": 0.45}
{"MOLECULE": "CC[C@@H](C)[C@@H](NC(=O)[C@@H](Cc1c[nH]c2ccccc12)NC(=O)[C@H](NC(=O)[C@@H](CC(C)C)NC(=O)[C@H](N)Cc1c[nH]c2ccccc12)C(C)C)C(=O)N[C@H](Cc1c[nH]c2ccccc12)C(=O)N[C@H](CCC(N)=O)C(=O)N[C@H](CCCNC(=N)N)C(=O)N[C@H](CCCNC(=N)N)C(=O)N[C@H](CCCNC(=N)N)C(N)=O [WCopW30] (H-[dW][dL][dV][dW][dI][dW][dQ][dR][dR][dR]-NH2)", "ASSAYED_SYSTEM": "human red blood cells", "Hemolysis percent, 25 μM [%]": 0.32}
{"MOLECULE": "CC[C@@H](C)[C@@H](NC(=O)[C@@H](Cc1c[nH]c2ccccc12)NC(=O)[C@@H](C)NC(=O)[C@@H](C)NC(=O)[C@H](N)Cc1c[nH]c2ccccc12)C(=O)NCC(=O)N[C@H](CC(C)C)C(=O)N[C@H](CCCNC(=N)N)C(=O)N[C@H](CCCCN)C(=O)N[C@H](CCCCN)C(=O)N[C@H](CCCNC(=N)N)C(N)=O [WCopW20] (H-[dW][dA][dA][dW][dI]G[dL][dR][dK][dK][dR]-NH2)", "ASSAYED_SYSTEM": "human red blood cells", "Hemolysis percent, 25 μM [%]": 0.11}
{"MOLECULE": "CC[C@@H](C)[C@@H](NC(=O)[C@@H](Cc1c[nH]c2ccccc12)NC(=O)[C@@H](CCCNC(=N)N)NC(=O)[C@H](N)CCCNC(=N)N)C(=O)N[C@H](Cc1c[nH]c2ccccc12)C(=O)N[C@@H](C(=O)N[C@@H](C(=O)N[C@H](Cc1c[nH]c2ccccc12)C(=O)N[C@H](CCCNC(=N)N)C(N)=O)[C@H](C)CC)C(C)C [WCopW54] (H-[dR][dR][dW][dI][dW][dV][dI][dW][dR]-NH2)", "ASSAYED_SYSTEM": "human red blood cells", "Hemolysis percent, 25 μM [%]": 8.38}
{"MOLECULE": "CC[C@@H](C)[C@@H](NC(=O)[C@@H](Cc1c[nH]c2ccccc12)NC(=O)[C@@H](CC(C)C)NC(=O)[C@@H](CC(C)C)NC(=O)[C@H](N)Cc1c[nH]c2ccccc12)C(=O)NCC(=O)N[C@H](CC(C)C)C(=O)N[C@H](CCCNC(=N)N)C(=O)N[C@H](CCCCN)C(=O)N[C@H](CCCCN)C(=O)N[C@H](CCCNC(=N)N)C(N)=O [WCopW5] (H-[dW][dL][dL][dW][dI]G[dL][dR][dK][dK][dR]-NH2)", "ASSAYED_SYSTEM": "human red blood cells", "Hemolysis percent, 25 μM [%]": 2.99}
{"MOLECULE": "CC[C@@H](C)[C@@H](NC(=O)[C@H](N)Cc1c[nH]c2ccccc12)C(=O)N[C@@H](C(=O)N[C@H](Cc1c[nH]c2ccccc12)C(=O)N[C@@H](C(=O)N[C@H](Cc1c[nH]c2ccccc12)C(=O)N[C@H](CCCNC(=N)N)C(=O)N[C@H](CCCNC(=N)N)C(=O)N[C@H](CCCNC(=N)N)C(N)=O)[C@H](C)CC)[C@H](C)CC [WCopW61] (H-[dW][dI][dI][dW][dI][dW][dR][dR][dR]-NH2)", "ASSAYED_SYSTEM": "human red blood cells", "Hemolysis percent, 25 μM [%]": 6.90}
{"MOLECULE": "CC[C@@H](C)[C@@H](NC(=O)[C@@H](Cc1c[nH]c2ccccc12)NC(=O)[C@@H](CCCNC(=N)N)NC(=O)[C@@H](CCCNC(=N)N)NC(=O)[C@H](N)CCCNC(=N)N)C(=O)N[C@H](Cc1c[nH]c2ccccc12)C(=O)N[C@@H](C(=O)N[C@@H](C(=O)N[C@H](Cc1c[nH]c2ccccc12)C(=O)N[C@H](CCCCN)C(N)=O)[C@H](C)CC)C(C)C [WCopW43] (H-[dR][dR][dR][dW][dI][dW][dV][dI][dW][dK]-NH2)", "ASSAYED_SYSTEM": "human red blood cells", "Hemolysis percent, 25 μM [%]": 1.12}
{"MOLECULE": "CC[C@@H](C)[C@@H](NC(=O)[C@@H](Cc1c[nH]c2ccccc12)NC(=O)[C@@H](CC(C)C)NC(=O)[C@H](N)CC(C)C)C(=O)NCC(=O)N[C@H](CC(C)C)C(=O)N[C@H](CCCCN)C(=O)N[C@H](CCCCN)C(=O)N[C@H](CCCCN)C(=O)N[C@H](CCCCN)C(N)=O [WCopW14] (H-[dL][dL][dW][dI]G[dL][dK][dK][dK][dK]-NH2)", "ASSAYED_SYSTEM": "human red blood cells", "Hemolysis percent, 25 μM [%]": 0.98}
{"MOLECULE": "CC[C@@H](C)[C@@H](NC(=O)[C@@H](Cc1c[nH]c2ccccc12)NC(=O)[C@@H](CC(C)C)NC(=O)[C@H](N)CC(C)C)C(=O)NCC(=O)N[C@H](CC(C)C)C(=O)N[C@H](CCCNC(=N)N)C(=O)N[C@H](CCCCN)C(=O)N[C@H](CCCCN)C(=O)N[C@H](CCCNC(=N)N)C(N)=O [WCopW13] (H-[dL][dL][dW][dI]G[dL][dR][dK][dK][dR]-NH2)", "ASSAYED_SYSTEM": "human red blood cells", "Hemolysis percent, 25 μM [%]": 1.00}
{"MOLECULE": "CC[C@@H](C)[C@@H](NC(=O)[C@@H](Cc1c[nH]c2ccccc12)NC(=O)[C@@H](CC(C)C)NC(=O)[C@@H](CC(C)C)NC(=O)[C@H](N)Cc1csc2ccccc12)C(=O)NCC(=O)N[C@H](CC(C)C)C(=O)N[C@H](CCCNC(=N)N)C(=O)N[C@H](CCCCN)C(=O)N[C@H](CCCCN)C(=O)N[C@H](CCCNC(=N)N)C(N)=O [WCopW16] (H-[dBta][dL][dL][dW][dI]G[dL][dR][dK][dK][dR]-NH2)", "ASSAYED_SYSTEM": "human red blood cells", "Hemolysis percent, 25 μM [%]": 2.77}
